# subject-of-test: mouse TMEM16A mutant I516A (Mus musculus, UniProt Q8BHY3, I516A)
# Construct: expressed in transfected cells; host or cells: HEK293T
# Sequence (Q8BHY3 whole entry I516A): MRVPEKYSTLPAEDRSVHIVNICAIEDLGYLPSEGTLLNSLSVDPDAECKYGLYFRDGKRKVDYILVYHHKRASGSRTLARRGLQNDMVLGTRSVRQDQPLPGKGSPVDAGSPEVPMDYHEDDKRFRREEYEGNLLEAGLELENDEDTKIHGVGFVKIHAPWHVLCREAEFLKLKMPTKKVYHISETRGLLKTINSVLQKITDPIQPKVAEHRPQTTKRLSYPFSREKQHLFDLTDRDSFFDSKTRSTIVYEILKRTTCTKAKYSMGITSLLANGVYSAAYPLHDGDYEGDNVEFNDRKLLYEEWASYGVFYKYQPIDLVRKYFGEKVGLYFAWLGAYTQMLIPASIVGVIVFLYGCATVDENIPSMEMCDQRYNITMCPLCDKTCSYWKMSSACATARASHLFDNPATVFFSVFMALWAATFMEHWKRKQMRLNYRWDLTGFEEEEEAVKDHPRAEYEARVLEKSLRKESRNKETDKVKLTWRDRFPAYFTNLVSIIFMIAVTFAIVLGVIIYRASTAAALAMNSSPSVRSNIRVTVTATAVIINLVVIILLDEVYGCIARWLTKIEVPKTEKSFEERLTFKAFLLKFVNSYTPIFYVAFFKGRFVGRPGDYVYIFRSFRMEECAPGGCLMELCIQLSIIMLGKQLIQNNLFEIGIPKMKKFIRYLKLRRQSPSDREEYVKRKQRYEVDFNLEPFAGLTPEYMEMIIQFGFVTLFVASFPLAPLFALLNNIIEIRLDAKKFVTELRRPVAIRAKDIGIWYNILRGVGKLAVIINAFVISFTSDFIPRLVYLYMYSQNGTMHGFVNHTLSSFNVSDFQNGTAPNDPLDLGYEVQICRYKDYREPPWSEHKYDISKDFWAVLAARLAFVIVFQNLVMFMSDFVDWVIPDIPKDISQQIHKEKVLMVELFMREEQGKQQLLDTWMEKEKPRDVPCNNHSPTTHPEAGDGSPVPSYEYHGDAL
# test-protocol: Inside-out patch recording of 1PBC block, mutant I516A
# Assay type: cell-based
# run-conditions: I516A; V 0 mV
parameter: IC50 (µM)
Number in µM, nothing else.

Which value of IC50 has been reported for N#Cc1c(C(F)(F)F)cc(O)n2c1nc1ccccc12 [1PBC] in the records? 5.69

====

# subject-of-test: mouse TMEM16A mutant T539A (Mus musculus, UniProt Q8BHY3, T539A)
# Construct: expressed in transfected cells; host or cells: HEK293T
# Sequence (Q8BHY3 whole entry T539A): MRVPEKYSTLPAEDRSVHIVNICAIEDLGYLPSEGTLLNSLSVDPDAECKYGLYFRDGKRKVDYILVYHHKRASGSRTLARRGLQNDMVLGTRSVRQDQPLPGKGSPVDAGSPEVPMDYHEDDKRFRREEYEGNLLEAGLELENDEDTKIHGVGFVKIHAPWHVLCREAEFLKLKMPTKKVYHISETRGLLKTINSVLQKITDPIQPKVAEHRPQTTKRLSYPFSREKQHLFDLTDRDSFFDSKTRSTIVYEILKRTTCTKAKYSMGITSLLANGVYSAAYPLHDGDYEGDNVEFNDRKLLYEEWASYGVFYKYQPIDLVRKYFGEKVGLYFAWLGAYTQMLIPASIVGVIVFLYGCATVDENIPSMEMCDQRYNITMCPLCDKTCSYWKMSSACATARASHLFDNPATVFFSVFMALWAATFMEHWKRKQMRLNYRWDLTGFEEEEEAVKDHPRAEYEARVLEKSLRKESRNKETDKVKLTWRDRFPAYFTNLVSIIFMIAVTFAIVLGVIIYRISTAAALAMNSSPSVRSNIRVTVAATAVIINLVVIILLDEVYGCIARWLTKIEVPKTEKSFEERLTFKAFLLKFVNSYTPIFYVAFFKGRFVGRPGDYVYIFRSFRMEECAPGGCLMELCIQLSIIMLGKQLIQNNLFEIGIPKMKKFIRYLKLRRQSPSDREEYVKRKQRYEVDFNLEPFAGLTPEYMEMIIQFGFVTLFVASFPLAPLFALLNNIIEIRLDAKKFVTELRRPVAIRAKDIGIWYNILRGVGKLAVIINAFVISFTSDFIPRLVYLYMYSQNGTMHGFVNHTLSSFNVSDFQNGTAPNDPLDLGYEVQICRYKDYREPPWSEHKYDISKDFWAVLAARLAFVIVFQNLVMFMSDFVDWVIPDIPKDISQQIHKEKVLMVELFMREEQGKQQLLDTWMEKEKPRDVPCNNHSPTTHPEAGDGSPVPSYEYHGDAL
# test-protocol: Inside-out patch recording of 1PBC block, mutant T539A
# Type: cell-based
# run-conditions: T539A; V -80 mV
parameter: pIC50
Scale: negative log10 of molar concentration, which is what pIC50 denotes.

Which value of pIC50 has been reported for N#Cc1c(C(F)(F)F)cc(O)n2c1nc1ccccc12 [1PBC] in the records? 4.54
